system_name: DRB1*13:02 (Homo sapiens, UniProt P01903+P01911, A100E/A169T/K41T/L162R/M171V/P40S/Q125H/Q178H/Q39Y/Q99D/R42S/S66N/T262R/V115G/W38E/Y61H)
Sequence (P01903 26-254 limits assumed, other chains not shown): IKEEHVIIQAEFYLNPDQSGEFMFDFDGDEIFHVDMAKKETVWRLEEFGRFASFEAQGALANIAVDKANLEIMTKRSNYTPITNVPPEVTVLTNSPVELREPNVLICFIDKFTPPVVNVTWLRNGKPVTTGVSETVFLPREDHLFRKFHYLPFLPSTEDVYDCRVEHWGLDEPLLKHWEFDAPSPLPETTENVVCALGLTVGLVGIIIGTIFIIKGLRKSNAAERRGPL
assay_protocol: biochemical
Where a SMILES comes first, the peptide text is derived from it.
reported_property: pIC50
Numbers only, as −log10 of the molar value.

Query: Given the entry CC[C@H](C)[C@H](NC(=O)[C@H](CCCNC(=N)N)NC(=O)[C@H](CC(C)C)NC(=O)[C@H](Cc1c[nH]cn1)NC(=O)CNC(=O)[C@@H](N)CCCNC(=N)N)C(=O)N[C@@H](C)C(=O)NCC(=O)N[C@@H](Cc1c[nH]cn1)C(=O)N[C@@H](Cc1c[nH]cn1)C(=O)N[C@@H](CC(C)C)C(=O)NCC(=O)N[C@@H](CCCNC(=N)N)C(=O)N[C@@H](CS)C(=O)N[C@@H](CC(=O)O)C(=O)O [Mem_30] (H-RGHLRIAGHHLGRCD-OH) , report its measured pIC50.
Result: 6.05

Further cases:
Query: Given the entry CC(C)C[C@H](NC(=O)[C@H](CCC(N)=O)NC(=O)[C@H](CC(N)=O)NC(=O)[C@H](CC(C)C)NC(=O)[C@H](CCCNC(=N)N)NC(=O)[C@H](CC(=O)O)NC(=O)[C@H](CC(C)C)NC(=O)[C@H](CC(C)C)NC(=O)[C@H](CC(C)C)NC(=O)[C@H](CC(C)C)NC(=O)[C@H](C)NC(=O)[C@H](CC(C)C)NC(=O)[C@H](C)NC(=O)[C@H](C)NC(=O)[C@@H](N)CC(=O)O)C(=O)O [Ncl_44] (H-DAALALLLLDRLNQL-OH) , report its measured pIC50.
Result: 6.31
